- tested system: T1, Cynomolgus monkey DLL3 on HEK293 cells (HEK293-cyno DLL3) (Cynomolgus monkey, UniProt Q9NYJ7 27-618 (human entry))
- T1 chain: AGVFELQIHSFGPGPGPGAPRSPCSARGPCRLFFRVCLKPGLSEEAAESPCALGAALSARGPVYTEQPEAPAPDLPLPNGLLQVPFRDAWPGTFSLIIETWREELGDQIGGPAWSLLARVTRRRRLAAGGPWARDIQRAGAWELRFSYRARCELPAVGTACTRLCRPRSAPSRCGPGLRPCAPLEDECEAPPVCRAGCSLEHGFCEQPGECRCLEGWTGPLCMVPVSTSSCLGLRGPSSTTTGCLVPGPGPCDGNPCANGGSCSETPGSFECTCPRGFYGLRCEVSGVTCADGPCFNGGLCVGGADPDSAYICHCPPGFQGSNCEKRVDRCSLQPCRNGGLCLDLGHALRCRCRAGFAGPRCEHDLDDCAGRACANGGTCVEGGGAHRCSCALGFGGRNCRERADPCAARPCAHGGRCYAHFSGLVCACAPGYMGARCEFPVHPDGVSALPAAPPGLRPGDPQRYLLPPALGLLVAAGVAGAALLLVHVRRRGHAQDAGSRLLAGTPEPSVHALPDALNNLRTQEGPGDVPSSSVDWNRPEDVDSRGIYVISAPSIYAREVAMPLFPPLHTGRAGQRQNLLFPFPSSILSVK
- method: flow cytometry, HEK293-cyno DLL3 cells
pEC50: −log10 of the molar value.
outcome measure: pEC50

{"columns": ["binder", "outcome measure", "data value"],
 "data": [
  ["DLL3-122 camelid-derived anti-DLL3 chimeric antibody (antibody, human IgG1, V domains shown) VH: QVQLVESGGGSVQAGGSLRLSCTASGDTYRSYCMGWFRKAPGKEREGVADIVSDGSTSYADSVKGRFTISKDNAKNTLYLQMNSLKPEDTAMYYCAVDRGGSGGYCYTGRYDYWGQGTQVTVSS", "pEC50", 9.24],
  ["hDLL3-12-2 camelid-derived humanized anti-DLL3 antibody (antibody, V domains shown) VH: QVQLVESGGGVVQPGRSLRLSCAASGFAFSSYDMHWVRQAPGKDFEWVSSISRDGRGPRYADSVKGRFTISRDNSKNTLYLQMNSLRAEDTAVYYCSKGYPIMGGTTQGTLVTVSS", "pEC50", 8.87],
  ["hDLL3-12-1 camelid-derived humanized anti-DLL3 antibody (antibody, V domains shown) VH: QVQLVESGGGVVQPGRSLRLSCAASGFAFSSYDMHWVRQAPGKGLEWVSSISRDGRGPRYADSVKGRFTISRDNSKNTLYLQMNSLRAEDTAVYYCSKGYPIMGGTTQGTLVTVSS", "pEC50", 8.63],
  ["hDLL3-26 camelid-derived humanized anti-DLL3 antibody (antibody, V domains shown) VH: EVQLVESGGGLVQPGGSLRLSCAASGDIYSSSYVGWFRQAPGKEREGVAIIYTSGDSTYYADSVKGRFTISRDNSKNTLYLQMNSLRAEDTAVYYCAARFAIDNSNYWGQGTLVTVSS", "pEC50", 8.65]
]}

Source listed as patent US20240239878A1.
